# experimental_details: Stability study in a Constant Temperature & Humidity Chamber (LNTII content by HPLC and appearance)
# Type: physicochemical
# test_settings: 40° C., relative humidity 75%, sealed, 2 months
value_type: Content, % (At the end of the 2nd month) (%)
Numeric only. Scale: %

// below: answered compounds
compound	Content, % (At the end of the 2nd month) (%)
CC(=O)NC1C(O)[C@H](O)C(CO)O[C@H]1OC1C(O)[C@H](O[C@@H]2C(CO)OC(O)C(O)C2O)OC(CO)[C@@H]1O (single isomer, unassigned) [Crystalline form B in Example 2, Lacto-N-triose II]	96.42
CC(=O)NC1C(O)[C@H](O)C(CO)O[C@H]1OC1C(O)[C@H](O[C@@H]2C(CO)OC(O)C(O)C2O)OC(CO)[C@@H]1O (single isomer, unassigned) [Crystalline form B in Example 5, Lacto-N-triose II]	93.48
CC(=O)NC1C(O)[C@H](O)C(CO)O[C@H]1OC1C(O)[C@H](O[C@@H]2C(CO)OC(O)C(O)C2O)OC(CO)[C@@H]1O (stereo partly drawn) [LNTII amorphous powder, Lacto-N-triose II, reference compound]	90.86
CC(=O)NC1C(O)[C@H](O)C(CO)O[C@H]1OC1C(O)[C@H](O[C@@H]2C(CO)OC(O)C(O)C2O)OC(CO)[C@@H]1O (single isomer, unassigned) [Crystalline form B in Example 3, Lacto-N-triose II]	96.93

Content, % (At the end of the 2nd month) in this record for CC(=O)NC1C(O)[C@H](O)C(CO)O[C@H]1OC1C(O)[C@H](O[C@@H]2C(CO)OC(O)C(O)C2O)OC(CO)[C@@H]1O (single isomer, unassigned) [Crystalline form B in Example 8, Lacto-N-triose II] : 96.49

Content, % (At the end of the 2nd month) in this record for CC(=O)NC1C(O)[C@H](O)C(CO)O[C@H]1OC1C(O)[C@H](O[C@@H]2C(CO)OC(O)C(O)C2O)OC(CO)[C@@H]1O (single isomer, unassigned) [Crystalline form B in Example 1, Lacto-N-triose II] : 96.78

Content, % (At the end of the 2nd month) in this record for CC(=O)NC1C(O)[C@H](O)C(CO)O[C@H]1OC1C(O)[C@H](O[C@@H]2C(CO)OC(O)C(O)C2O)OC(CO)[C@@H]1O (single isomer, unassigned) [Crystalline form B in Example 7, Lacto-N-triose II] : 93.81

Content, % (At the end of the 2nd month) in this record for CC(=O)NC1C(O)[C@H](O)C(CO)O[C@H]1OC1C(O)[C@H](O[C@@H]2C(CO)OC(O)C(O)C2O)OC(CO)[C@@H]1O (single isomer, unassigned) [Crystalline form B in Example 4, Lacto-N-triose II] : 96.06

Content, % (At the end of the 2nd month) in this record for CC(=O)NC1C(O)[C@H](O)C(CO)O[C@H]1OC1C(O)[C@H](O[C@@H]2C(CO)OC(O)C(O)C2O)OC(CO)[C@@H]1O (single isomer, unassigned) [Crystalline form B in Example 6, Lacto-N-triose II] : 92.39

---

# experimental_details: Stability study in a Constant Temperature & Humidity Chamber (LNTII content by HPLC and appearance)
# Assay type: physicochemical
# test_settings: 40° C., relative humidity 75%, sealed with aluminum compound packing film, 1 month
value_type: Content, % (At the end of the 1st month) (%)
Numeric only. Scale: %

// below: answered compounds
compound	value_type	test_result
CC(=O)NC1C(O)[C@H](O)C(CO)O[C@H]1OC1C(O)[C@H](O[C@@H]2C(CO)OC(O)C(O)C2O)OC(CO)[C@@H]1O (single isomer, unassigned) [Crystalline form B in Example 4, Lacto-N-triose II]	Content, % (At the end of the 1st month)	96.13
CC(=O)NC1C(O)[C@H](O)C(CO)O[C@H]1OC1C(O)[C@H](O[C@@H]2C(CO)OC(O)C(O)C2O)OC(CO)[C@@H]1O (single isomer, unassigned) [Crystalline form B in Example 2, Lacto-N-triose II]	Content, % (At the end of the 1st month)	96.44
CC(=O)NC1C(O)[C@H](O)C(CO)O[C@H]1OC1C(O)[C@H](O[C@@H]2C(CO)OC(O)C(O)C2O)OC(CO)[C@@H]1O (single isomer, unassigned) [Crystalline form B in Example 5, Lacto-N-triose II]	Content, % (At the end of the 1st month)	93.56

Content, % (At the end of the 1st month) in this record for CC(=O)NC1C(O)[C@H](O)C(CO)O[C@H]1OC1C(O)[C@H](O[C@@H]2C(CO)OC(O)C(O)C2O)OC(CO)[C@@H]1O (single isomer, unassigned) [Crystalline form B in Example 7, Lacto-N-triose II] : 93.77

---

Measured Content, % (At the end of the 3rd month), listed per entry.
# experimental_details: Stability study in a Constant Temperature & Humidity Chamber (LNTII content by HPLC and appearance)
# Assay type: physicochemical
# test_settings: 40° C., relative humidity 75%, sealed, 3 months

compound	Content, % (At the end of the 3rd month)
CC(=O)NC1C(O)[C@H](O)C(CO)O[C@H]1OC1C(O)[C@H](O[C@@H]2C(CO)OC(O)C(O)C2O)OC(CO)[C@@H]1O (single isomer, unassigned) [Crystalline form B in Example 5, Lacto-N-triose II]	93.34%
CC(=O)NC1C(O)[C@H](O)C(CO)O[C@H]1OC1C(O)[C@H](O[C@@H]2C(CO)OC(O)C(O)C2O)OC(CO)[C@@H]1O (single isomer, unassigned) [Crystalline form B in Example 2, Lacto-N-triose II]	96.38%

Content, % (At the end of the 3rd month) in this record for CC(=O)NC1C(O)[C@H](O)C(CO)O[C@H]1OC1C(O)[C@H](O[C@@H]2C(CO)OC(O)C(O)C2O)OC(CO)[C@@H]1O (single isomer, unassigned) [Crystalline form B in Example 4, Lacto-N-triose II] : 96.07%

Content, % (At the end of the 3rd month) in this record for CC(=O)NC1C(O)[C@H](O)C(CO)O[C@H]1OC1C(O)[C@H](O[C@@H]2C(CO)OC(O)C(O)C2O)OC(CO)[C@@H]1O (single isomer, unassigned) [Crystalline form B in Example 7, Lacto-N-triose II] : 93.75%

---

# experimental_details: Stability study in a Constant Temperature & Humidity Chamber (LNTII content by HPLC and appearance)
# Assay type: physicochemical
# test_settings: 40° C., relative humidity 75%, sealed, 1 month
value_type: Appearance (At the end of the 1st month)

compound	value_type	test_result
CC(=O)NC1C(O)[C@H](O)C(CO)O[C@H]1OC1C(O)[C@H](O[C@@H]2C(CO)OC(O)C(O)C2O)OC(CO)[C@@H]1O (single isomer, unassigned) [Crystalline form B in Example 4, Lacto-N-triose II]	Appearance (At the end of the 1st month)	Off-white
CC(=O)NC1C(O)[C@H](O)C(CO)O[C@H]1OC1C(O)[C@H](O[C@@H]2C(CO)OC(O)C(O)C2O)OC(CO)[C@@H]1O (single isomer, unassigned) [Crystalline form B in Example 6, Lacto-N-triose II]	Appearance (At the end of the 1st month)	Off-white
CC(=O)NC1C(O)[C@H](O)C(CO)O[C@H]1OC1C(O)[C@H](O[C@@H]2C(CO)OC(O)C(O)C2O)OC(CO)[C@@H]1O (single isomer, unassigned) [Crystalline form B in Example 7, Lacto-N-triose II]	Appearance (At the end of the 1st month)	Off-white

Numbers sourced from patent US20250333431A1.
